// provenance: patent US20160083466A1

Target: T1, rat IL-25 expressed with a C-terminal myc-myc-hexahistidine tag (rat)
T1 construct: also called Rat IL-25-MMH
T1 chain: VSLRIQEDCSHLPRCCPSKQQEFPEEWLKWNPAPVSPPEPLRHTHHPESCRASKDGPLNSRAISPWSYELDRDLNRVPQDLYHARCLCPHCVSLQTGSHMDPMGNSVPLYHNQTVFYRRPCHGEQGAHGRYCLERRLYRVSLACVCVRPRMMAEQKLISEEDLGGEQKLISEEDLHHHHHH
Experiment: SPR Biacore, antibody captured, 25C;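 also: purified anti-IL-25 antibodies were tested by real-time surface plasmon resonance on a Biacore 4000, with rate constants obtained from sensorgram fits to a 1:1 binding model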
READOUT_NAME: koff (s⁻¹)

• H4H10876P (antibody, human IgG4, V domains shown, H4H prefix = human IgG4 Fc) VH: QVQLVQSGAEVKKPGASVKVSCKASEYTFSNYGISWVRQAPGQGLEWLGWIGAYSGFTKYAQKVQDRITMTTDASTTTAYMELRNLRSDDTAVYYCARVGTGTDSYFDFWGQGTLVTVSS VL: DIQMTQSPSSLSASVGDRVTITCRASQNINSHLNWYQQKPGKAPKLLIYTASSLQSGVPLRFSGSGSGTDFTLTISSLQPEDFGIYICQQTYITPLTFGGGTKVEIK = 8.81e-05
• H4H10871P (antibody, human IgG4, V domains shown, H4H prefix = human IgG4 Fc) VH: QVQLVQSGAEVMKPGASVKVSCKSSDFAFTTYGISWVRQAPGQGLEWMGWISAYNGNTNYEQRFQGRITMTTDTSTTTVYMELRSLRSDDTAVYYCARDPDYCSSNTCSDAFDLWGQGTMVTVSS VL: DIQMTQSPSSLSASVRDRVTITCRASQGITNYLAWYQQKPGKVPKVLIYAASTLQSGVPSRFSGSGSGTEFTLAISSLQPEDVATYFCQQYGSAPWTFGQGTKVEIK = 7.23e-05
• H4H10863P (antibody, human IgG4, V domains shown, H4H prefix = human IgG4 Fc) VH: QVQLVQSGAEVKKPGASVKVSCKASGYTFSSYGISWVRQAPGQGLEWMGWISAYNDNTQYAQKFQGRVTMTTDTSTSTAYMELRSLRSDDTAVYYCARVPLQWFGESFDHWGQGTLVTVSS VL: DIQMTQSPSSLSASVGDRVTITCRASQDINNYLNWFQQKPGKAPKLLIFSTSSLQSGVPSRFSGSGSGTDFTLTISSLQSEDFATYYCQQTFITPLTFGGGTKVEIK = 0.000164
